# Experimental System: T1, His-tagged human HtrA1 protease domain (human, UniProt Q92743 161-367)
# T1 construct: His-tagged protease domain; also called huHtrA1-PD-His; huHtrA1-PD
# T1 sequence (Q92743 other isoform, or with tags, fused parts or gaps limits assumed): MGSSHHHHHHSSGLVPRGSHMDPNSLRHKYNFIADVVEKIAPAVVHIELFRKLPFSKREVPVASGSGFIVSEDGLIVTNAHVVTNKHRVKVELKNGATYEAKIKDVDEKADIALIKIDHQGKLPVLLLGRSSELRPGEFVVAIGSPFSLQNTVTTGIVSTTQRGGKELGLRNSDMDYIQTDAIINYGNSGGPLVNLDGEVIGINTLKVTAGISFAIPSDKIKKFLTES
# Assay Info: SPR (BIACORE T200), huHtrA1-PD-His captured by anti-His, Fab injected
Readout Kind: koff
Param answer (str): number followed by unit.

These recorded examples may help you get a feel for the data.
[
  {
    "Binder": "h15H6.v2 variant HC4 (HC-T28R) Fab (Fab, V domains shown, Fab-Flag tag fusion from 293T cells) VH: EVQLVQSGAEVKKPGASVKVSCKASGYRFTDSEMHWVRQAPGQGLEWIGGVDPETDGAAYNQKFKGRATITRDTSTSTAYLELSSLRSEDTAVYYCTRGYDYDYALDYWGQGTLVTVSS VL: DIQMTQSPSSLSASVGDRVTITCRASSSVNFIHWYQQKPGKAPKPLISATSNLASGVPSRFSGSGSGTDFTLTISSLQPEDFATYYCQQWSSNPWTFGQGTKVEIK",
    "koff": "0.000212 s⁻¹"
  },
  {
    "Binder": "h15H6.v2 variant HC1 (HC-T30K) Fab (Fab, V domains shown, Fab-Flag tag fusion from 293T cells) VH: EVQLVQSGAEVKKPGASVKVSCKASGYTFKDSEMHWVRQAPGQGLEWIGGVDPETDGAAYNQKFKGRATITRDTSTSTAYLELSSLRSEDTAVYYCTRGYDYDYALDYWGQGTLVTVSS VL: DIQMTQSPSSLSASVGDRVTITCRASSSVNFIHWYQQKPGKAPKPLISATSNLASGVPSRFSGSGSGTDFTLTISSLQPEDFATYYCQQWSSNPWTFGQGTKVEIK",
    "koff": "0.000165 s⁻¹"
  },
  {
    "Binder": "h15H6.v2 variant LC1 (LC-S29R) Fab (Fab, V domains shown, Fab-Flag tag fusion from 293T cells) VH: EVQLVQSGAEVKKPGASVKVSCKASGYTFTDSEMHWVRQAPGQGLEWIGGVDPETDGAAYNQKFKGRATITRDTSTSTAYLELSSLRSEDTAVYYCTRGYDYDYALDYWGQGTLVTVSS VL: DIQMTQSPSSLSASVGDRVTITCRASSRVNFIHWYQQKPGKAPKPLISATSNLASGVPSRFSGSGSGTDFTLTISSLQPEDFATYYCQQWSSNPWTFGQGTKVEIK",
    "koff": "0.000229 s⁻¹"
  },
  {
    "Binder": "h15H6.v2 variant HC2 (HC-T30R) Fab (Fab, V domains shown, Fab-Flag tag fusion from 293T cells) VH: EVQLVQSGAEVKKPGASVKVSCKASGYTFRDSEMHWVRQAPGQGLEWIGGVDPETDGAAYNQKFKGRATITRDTSTSTAYLELSSLRSEDTAVYYCTRGYDYDYALDYWGQGTLVTVSS VL: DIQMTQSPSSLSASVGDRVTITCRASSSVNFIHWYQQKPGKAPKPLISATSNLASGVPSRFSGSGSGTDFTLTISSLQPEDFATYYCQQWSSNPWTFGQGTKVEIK",
    "koff": "0.000164 s⁻¹"
  },
  {
    "Binder": "h15H6.v2 Fab (Fab, V domains shown, Tested as Fab; also called parent; parental Fab) VH: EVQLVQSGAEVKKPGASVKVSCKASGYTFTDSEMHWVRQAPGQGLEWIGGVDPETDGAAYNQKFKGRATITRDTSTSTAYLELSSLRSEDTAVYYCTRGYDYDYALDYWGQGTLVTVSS VL: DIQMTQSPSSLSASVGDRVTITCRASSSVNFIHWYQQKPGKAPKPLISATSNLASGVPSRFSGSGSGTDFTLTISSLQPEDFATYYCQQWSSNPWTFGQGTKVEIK",
    "koff": "0.000158 s⁻¹"
  },
  {
    "Binder": "h15H6.v2 variant LC9 (LC-S93I) Fab (Fab, V domains shown, Fab-Flag tag fusion from 293T cells) VH: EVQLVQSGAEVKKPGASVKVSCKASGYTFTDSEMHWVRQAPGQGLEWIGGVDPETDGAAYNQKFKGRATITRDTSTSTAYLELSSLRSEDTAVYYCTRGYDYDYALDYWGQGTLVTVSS VL: DIQMTQSPSSLSASVGDRVTITCRASSSVNFIHWYQQKPGKAPKPLISATSNLASGVPSRFSGSGSGTDFTLTISSLQPEDFATYYCQQWSINPWTFGQGTKVEIK",
    "koff": "0.000404 s⁻¹"
  },
  {
    "Binder": "h15H6.v2 variant LC10 (LC-F32V, LC-S92K) Fab (Fab, V domains shown, Fab-Flag tag fusion from 293T cells) VH: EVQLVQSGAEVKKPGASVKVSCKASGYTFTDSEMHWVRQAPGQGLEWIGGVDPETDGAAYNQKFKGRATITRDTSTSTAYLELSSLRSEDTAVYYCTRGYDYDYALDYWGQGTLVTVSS VL: DIQMTQSPSSLSASVGDRVTITCRASSSVNVIHWYQQKPGKAPKPLISATSNLASGVPSRFSGSGSGTDFTLTISSLQPEDFATYYCQQWKSNPWTFGQGTKVEIK",
    "koff": "0.00213 s⁻¹"
  },
  {
    "Binder": "h15H6.v2 variant LC5 (LC-N53E) Fab (Fab, V domains shown, Fab-Flag tag fusion from 293T cells) VH: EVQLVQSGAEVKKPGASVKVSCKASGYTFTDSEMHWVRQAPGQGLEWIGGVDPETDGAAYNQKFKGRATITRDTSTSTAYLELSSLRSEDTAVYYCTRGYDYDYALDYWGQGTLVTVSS VL: DIQMTQSPSSLSASVGDRVTITCRASSSVNFIHWYQQKPGKAPKPLISATSELASGVPSRFSGSGSGTDFTLTISSLQPEDFATYYCQQWSSNPWTFGQGTKVEIK",
    "koff": "0.000212 s⁻¹"
  }
]

Just so you know, measured koff for h15H6.v2 variant HC5 (HC-M34L) Fab (Fab, V domains shown, Fab-Flag tag fusion from 293T cells) VH: EVQLVQSGAEVKKPGASVKVSCKASGYTFTDSELHWVRQAPGQGLEWIGGVDPETDGAAYNQKFKGRATITRDTSTSTAYLELSSLRSEDTAVYYCTRGYDYDYALDYWGQGTLVTVSS VL: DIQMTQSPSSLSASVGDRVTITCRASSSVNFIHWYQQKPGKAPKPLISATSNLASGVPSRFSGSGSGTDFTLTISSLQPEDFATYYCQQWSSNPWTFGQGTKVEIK came out at 0.000246 s⁻¹

Just so you know, measured koff for h15H6.v2 variant HC3 (HC-T28K) Fab (Fab, V domains shown, Fab-Flag tag fusion from 293T cells) VH: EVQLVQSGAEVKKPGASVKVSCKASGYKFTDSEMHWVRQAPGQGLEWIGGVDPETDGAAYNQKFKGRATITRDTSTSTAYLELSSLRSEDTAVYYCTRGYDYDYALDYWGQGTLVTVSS VL: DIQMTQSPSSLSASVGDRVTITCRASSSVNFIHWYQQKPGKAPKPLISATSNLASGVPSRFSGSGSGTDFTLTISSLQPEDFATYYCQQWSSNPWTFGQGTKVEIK came out at 0.000171 s⁻¹
